- Test system: MALME-3M melanoma
- PROCEDURE DETAILS: NCI tumour cell line growth inhibition, 48 h
Measured TGI, listed per entry for reference.
ENDPOINT: TGI (µM)

>>> result("COC1=C2C=[N+](C)C3C(=C2C=CC1OC)Cc1cc2c(cc13)OCO2 (stereo not given)")
18.8
>>> result("Cc1cc(N(CCCNc2ccnc3cc(Cl)ccc23)Cc2ccc3c(c2)OCO3)nc(N2CCCCC2)n1")
3.75
>>> result("CCCCCCCCCCCCCCCCCCOc1ccccc1CC(=O)NCC[N+](C)(C)C")
94
>>> result("Cc1ccc(Nc2cc(C)nc(NCCCNc3ccnc4cc(Cl)ccc34)n2)cc1")
3.74
>>> result("Cc1c2ccccc2c(C)n2c1nc1ccccc12")
23.5

Cited source for all entries: PubChem BioAssay (NCI)
